Can you tell me IC50 for the items I'm about to list?
Biological target: human AOC3 enzyme (Homo sapiens (Human), UniProt Q16853)
Sequence (Q16853 whole entry): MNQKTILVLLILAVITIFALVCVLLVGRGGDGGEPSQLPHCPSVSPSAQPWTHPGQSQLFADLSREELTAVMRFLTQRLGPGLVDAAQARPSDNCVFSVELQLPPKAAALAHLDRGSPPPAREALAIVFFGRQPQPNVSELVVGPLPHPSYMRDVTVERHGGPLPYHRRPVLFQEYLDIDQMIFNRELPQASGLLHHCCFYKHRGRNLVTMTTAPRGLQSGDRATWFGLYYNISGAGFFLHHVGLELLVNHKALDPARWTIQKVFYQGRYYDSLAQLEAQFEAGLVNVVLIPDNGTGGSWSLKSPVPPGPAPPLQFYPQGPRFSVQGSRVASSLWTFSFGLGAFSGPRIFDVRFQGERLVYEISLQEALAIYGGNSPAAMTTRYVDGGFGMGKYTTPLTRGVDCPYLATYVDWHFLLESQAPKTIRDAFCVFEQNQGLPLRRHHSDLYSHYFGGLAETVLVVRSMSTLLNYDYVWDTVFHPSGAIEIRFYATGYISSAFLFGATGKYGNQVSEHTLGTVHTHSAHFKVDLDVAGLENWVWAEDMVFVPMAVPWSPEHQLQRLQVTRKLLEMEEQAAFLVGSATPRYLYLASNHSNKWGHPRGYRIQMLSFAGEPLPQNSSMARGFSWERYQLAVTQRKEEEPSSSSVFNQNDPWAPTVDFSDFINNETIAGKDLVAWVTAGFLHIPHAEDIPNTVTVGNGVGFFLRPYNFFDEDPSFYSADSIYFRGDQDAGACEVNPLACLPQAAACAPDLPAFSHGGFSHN
Assay: AOC3 biochemical assay (MAO-Glo)
Settings: comparison table; read-out: IC50 AOC3
Procedure: The MAO-Glo™ Assay (commercially available from PROMEGA, #V1402) provides a sensitive method for the measurement of monoamine oxidase (MAO) activity (Valley, M. P. et al., 2006, Anal. Biochem. 359: 238-246) from a variety of tissues, biofluids or recombinant expressed or purified enzymes. […] After a spontaneous elimination and a catalyzed esterase reaction, the turnover of the luciferine by the luciferase is recorded as a signal of AOC3 activity. […]
Expressed in nM, but write only the number.

So, NC/C(=C\F)COc1cnc(N2CCC(O)CC2)nc1 [Example 2 of WO 2018/027892, reference compound] ? Its IC50 was 20

So, NC/C(=C\F)COc1cnc(N2CC[C@H](O)C2)nc1 [Example 6 of WO 2018/027892, reference compound] ? Its IC50 was 59

So, NC/C(=C\F)COc1ccc(S(=O)(=O)N2CC[C@H](O)C2)cc1 [Reference compound B, reference compound] ? Its IC50 was 27

So, CO[C@H]1CCN(c2ncc(OC/C(=C/F)CN)cn2)C1 [Example 5 of WO 2018/027892, reference compound] ? Its IC50 was 13
